The values you see were collected from PubChem BioAssay (NCATS).

# Experiment: Cell Viability - LYMP2-011 (AID 969);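 also: cells exposed to compound for 24 hours; nearly all actives have a fitted effect of over 60% in size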; also: potency is read from the fitted curve at half-maximal effect
# Settings: LYMP2-011 lymphoblastoid cells viability; series mostly up to 92.2 µM
Results filed as inconclusive are left out. Activity calls are given as the source filed them. Calls follow the shape of the dose curve; as a rule, active = well fitted cell-killing curve with a large enough effect; inconclusive = small, poorly fitted or top-dose-only effect; inactive = flat fitted curve, though single readings scatter.
Measured Property: Potency

Illustrative cases are given below, each with its answer.
1. CC(O)C(=O)O (stereo not given) : inactive
2. COc1cccc2c1C(=O)c1c(O)c3c(c(O)c1C2=O)C[C@@](O)(C(=O)CO)C[C@@H]3O[C@H]1C[C@H](N)[C@H](O)[C@H](C)O1 : 0.251 µM (active)
3. CC(=O)O[C@]1(C(C)=O)CC[C@H]2[C@@H]3C[C@H](C)C4=CC(=O)CC[C@]4(C)[C@H]3CC[C@@]21C : 39.8 µM (active)
4. Nc1ccc(C(=O)O)cc1 : inactive

# ---- query compound ----
Task: What Potency value was documented for this compound, "O=C1OC(c2ccc(O)cc2)(c2ccc(O)cc2)c2ccccc21" ?
Result: inactive

----------
# Experiment: S16 Schwann cell PMP22 intronic element firefly luciferase assay (AID 624032); also: nearly all actives have a fitted effect of over 30% in size
# Settings: S16 rat Schwann cells, PMP22 element FLuc, 24 h; series mostly up to 57.5 µM
Results filed as inconclusive are left out. Active and inactive are the calls of the source. The call rests on the fitted dose curve; in most records, active means well fitted inhibition curve with a large enough effect; inconclusive means small, poorly fitted or top-dose-only effect; inactive means no such curve, though single readings can be large or run the other way.
Your answer must be one of the following: active, inactive

Consider the worked cases shown below.
1. COc1cccc(CCc2ccccc2OCC(CN(C)C)OC(=O)CCC(=O)O)c1 (stereo unspecified) : inactive
2. NCCCC[C@H](N[C@@H](CCc1ccccc1)C(=O)O)C(=O)N1CCC[C@H]1C(=O)O : inactive

Task: Returns: the outcome recorded for CCC(C(=O)OCCN(CC)CC)c1ccccc1 (stereo unspecified) in this assay.
Result: inactive

Task: Returns: the outcome recorded for "CNCCC=C1c2ccccc2CCc2ccccc21" in this assay.
Result: active

Task: Returns: the outcome recorded for "CCN(CC)C(=O)/C(C#N)=C/c1cc(O)c(O)c([N+](=O)[O-])c1" in this assay.
Result: inactive

Task: Returns: the outcome recorded for "O=C(O)c1cc2cc(Cc3cccnc3)ccc2o1" in this assay.
Result: inactive

----------
# Test system: astro
# Experiment: Drug repurposing screens with cells derived from glioblastoma tumor samples (AID 1345199); also: nearly all actives have a fitted effect of over 40% in size
# Settings: viability, ATP luminescence, 48 h; series mostly up to 45.9 µM
Records with an inconclusive call do not appear. Calls of active or inactive are those of the source. The call rests on the fitted dose curve; in most records, active means well fitted inhibition curve with a large enough effect; inconclusive means small, poorly fitted or top-dose-only effect; inactive means flat fitted curve, though single readings scatter.
Your answer must be one of the following: 1 for active, -1 for inactive

Consider the worked cases shown below.
1) CCN1CCN(c2cc3c(cc2F)c(=O)c(C(=O)O)cn3C2CC2)CC1 : -1
2) CC(=O)[C@H]1CC[C@H]2[C@@H]3C[C@H](C)C4=CC(=O)CC[C@]4(C)[C@H]3[C@@H](O)C[C@]12C : -1
3) CCOc1ccc2nc3cc(N)ccc3c(N)c2c1 : -1
4) CC1(C)O[C@@H]2C[C@H]3[C@@H]4CCC5=CC(=O)CC[C@]5(C)[C@@]4(F)[C@@H](O)C[C@]3(C)[C@]2(C(=O)CCl)O1 : -1
5) N[C@H](CO)C(=O)O : -1
6) CC(C)(C)CC(C)(C)c1ccc(O)c(Cc2ccc(Cl)cc2Cl)c1 : 1
7) CC(O)C(=O)O (configuration not stated) : -1
8) C[C@@H]1C[C@H]2[C@@H]3CCC4=CC(=O)C=C[C@]4(C)[C@@]3(F)[C@@H](O)C[C@]2(C)[C@H]1C(=O)CO : -1
9) CC(=O)OCC(=O)[C@@]1(O)CC[C@H]2[C@@H]3CCC4=CC(=O)C=C[C@]4(C)[C@H]3[C@@H](O)C[C@@]21C : -1
10) COc1ccc(CN2CCN(C(c3ccc(F)cc3)c3ccc(F)cc3)CC2)c(OC)c1OC : 1

Task: Returns: the outcome recorded for "O=C1[C@H]2CCCC[C@H]2C(=O)N1CCCCN1CCN(c2nsc3ccccc23)CC1" in this assay.
Result: -1

Task: Returns: the outcome recorded for "Cc1ccc(Nc2c(F)cccc2Cl)c(CC(=O)O)c1" in this assay.
Result: -1

----------
# Test system: CP250
# Experiment: qHTS profiling for inhibitors of Plasmodium falciparum proliferation (AID 504749); also: nearly all actives have a fitted effect of over 60% in size
# Settings: P. falciparum in erythrocytes, SYBR Green DNA, 72 h; series mostly up to 28.7 µM
Inconclusive results are not listed. Activity calls are given as the source filed them. The call rests on the fitted dose curve; in most records, active means well fitted inhibition curve with a large enough effect; inconclusive means small, poorly fitted or top-dose-only effect; inactive means flat fitted curve, though single readings scatter.
Your answer must be one of the following: active, inactive

Consider the worked cases shown below.
1) Cc1c(C(C)C)c(=O)n(-c2ccccc2)n1C : inactive
2) O=C(CCN1CCC(c2ccccc2)C1)c1ccc2c(c1)OCCO2 (stereo not drawn) : inactive

Task: Returns: the outcome recorded for "c1ccc(CNCCNCc2ccccc2)cc1" in this assay.
Result: inactive

Task: Returns: the outcome recorded for "CN1CCN(C(c2ccccc2)c2ccccc2)CC1" in this assay.
Result: inactive

Task: Returns: the outcome recorded for "Cc1c(C)n(CCN(C)C)c2ccc(C(=O)OCCN(C)C)cc12" in this assay.
Result: inactive

Task: Returns: the outcome recorded for "NC(CO)(CO)CO" in this assay.
Result: inactive

Task: Returns: the outcome recorded for "COc1cc(NS(C)(=O)=O)ccc1Nc1c2ccccc2nc2ccccc12" in this assay.
Result: active

Task: Returns: the outcome recorded for "Clc1ccc2c(c1)CCc1cccnc1C2=C1CCNCC1" in this assay.
Result: inactive

Task: Returns: the outcome recorded for "Cc1c(C)n(Cc2ccccc2)c2ccc(C(=O)OCCN(C)C)cc12" in this assay.
Result: inactive

Task: Returns: the outcome recorded for COc1cccc(CCc2ccccc2OCC(CN(C)C)OC(=O)CCC(=O)O)c1 (stereo not drawn) in this assay.
Result: active

Task: Returns: the outcome recorded for "CC(C)(C(=O)c1cccnc1)c1cccnc1" in this assay.
Result: inactive

Task: Returns: the outcome recorded for CC(O)C(=O)O (stereo not drawn) in this assay.
Result: inactive

Task: Returns: the outcome recorded for "NCCCC[C@H](N[C@@H](CCc1ccccc1)C(=O)O)C(=O)N1CCC[C@H]1C(=O)O" in this assay.
Result: inactive

----------
# System: KB-3-1
# Experiment: Cytotoxic Profiling of Annotated Libraries Using Quantitative High-Throughput Screening (AID 1296008); also: % is scaled to controls: 0 for no effect and ±100 for the full control effect; nearly all actives have a fitted effect of over 60% in size
# Settings: Five cell lines viability, CellTiter-Glo ATP luminescence, 48-72 h; stronger effect = lower value
Results filed as inconclusive are left out.
Kindly supply the reported max response values for the records listed here.
Give bare numbers, in %.

1) N[C@H](Cc1c[nH]c2ccccc12)C(=O)O : 5.87
2) O=C1c2ccccc2C(=O)C1c1ccccc1 : -18.6
3) c1ccc(CNCCNCc2ccccc2)cc1 : -3.68
4) O=C(OCC(O)CO)c1ccccc1Nc1ccnc2cc(Cl)ccc12 (stereo not given) : 1.57
5) C#C[C@]1(O)CC[C@H]2[C@@H]3CCc4cc(OC5CCCC5)ccc4[C@H]3CC[C@@]21C : -14.7
6) COc1cc2c(cc1OC)C(=O)C(CC1CCN(Cc3ccccc3)CC1)C2 (stereo not given) : 1.75
7) OC(CCN1CCCCC1)(c1ccccc1)c1ccccc1 : 16.8
8) C[C@@H]1C[C@H]2[C@@H]3CCC4=CC(=O)C=C[C@]4(C)[C@@]3(F)[C@@H](O)C[C@]2(C)[C@H]1C(=O)CO : 11.3
9) C[C@H](CCC(=O)O)[C@H]1CC[C@H]2[C@@H]3C(=O)C[C@@H]4CC(=O)CC[C@]4(C)[C@H]3CC(=O)[C@]12C : -9.72

# ---- query molecule ----
Task: What max response value was documented for this molecule, "CCCCCCC[N+](CC)(CC)CCCCc1ccc(Cl)cc1" ?
Result: -16.1

----------
# Experiment: Cell Viability - LYMP2-023 (AID 975);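 also: cells exposed to compound for 24 hours at 37 °C; nearly all actives have a fitted effect of over 55% in size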; also: potency is read from the fitted curve at half-maximal effect
# Settings: LYMP2-023 lymphoblastoid cell viability; series mostly up to 92.2 µM
Records with an inconclusive call do not appear. Active and inactive are the calls of the source. Calls come from the whole dose curve; as a rule, active = well fitted cell-killing curve with a large enough effect; inconclusive = small, poorly fitted or top-dose-only effect; inactive = flat fitted curve, though single readings scatter.
Measured Property: Potency

Illustrative cases are given below, each with its answer.
1) O=c1ccc2ccccc2o1 : inactive
2) COC1=CC(=O)C[C@@H](C)[C@]12Oc1c(Cl)c(OC)cc(OC)c1C2=O : inactive
3) C[C@]12CC[C@@H]3c4ccc(O)cc4CC[C@H]3[C@@H]1CC[C@@H]2O : inactive
4) COc1cccc2c1C(=O)c1c(O)c3c(c(O)c1C2=O)C[C@@](O)(C(=O)CO)C[C@@H]3O[C@H]1C[C@H](N)[C@H](O)[C@H](C)O1 : 0.398 µM (active)
5) NC(=NCCCCCCN=C(N)/N=C(\N)Nc1ccc(Cl)cc1)/N=C(\N)Nc1ccc(Cl)cc1 : 50.1 µM (active)

For each listed entry, give its Potency.
1. O=C1OC(c2ccc(O)cc2)(c2ccc(O)cc2)c2ccccc21
2. CC(C)(C)CC(C)(C)c1ccc(OCCOCC[N+](C)(C)Cc2ccccc2)cc1
3. C=CCc1ccc(O)c(OC)c1

Result:
1: inactive; 2: 39.8 µM (active); 3: inactive

----------
# Experimental System: Glucocorticoid receptor (Homo sapiens)
# Experiment: GR-GFP Redistribution (AID 450); also: potency is read from the fitted curve at half-maximal effect
# Settings: U2OS GR-GFP nuclear translocation, laser cytometry, 2 h
Activity calls are given as the source filed them.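 The calls were made as follows: active = compounds whose dose series gives a full or clear partial fitted curve of increased nuclear translocation; inconclusive = weak partial curve or effect only at the top dose; inactive = no dose-dependent translocation response.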
Your answer must be one of the following: active, inactive

1) COc1cc(NS(C)(=O)=O)ccc1Nc1c2ccccc2nc2ccccc12 : inactive
2) CCN(CCCCOC(=O)c1ccc(OC)c(OC)c1)C(C)Cc1ccc(OC)cc1 (stereo unspecified) : inactive
3) C=C(CC)C(=O)c1ccc(OCC(=O)O)c(Cl)c1Cl : inactive
4) NCCCC[C@H](N[C@@H](CCc1ccccc1)C(=O)O)C(=O)N1CCC[C@H]1C(=O)O : inactive
5) CC(CCc1ccccc1)NCC(O)c1ccc(O)c(C(N)=O)c1 (stereo unspecified) : inactive

Task: Returns: the outcome recorded for "Oc1c(I)cc(Cl)c2cccnc12" in this assay.
Result: inactive

Task: Returns: the outcome recorded for "Oc1ccc(Cl)cc1Sc1cc(Cl)ccc1O" in this assay.
Result: inactive

Task: Returns: the outcome recorded for c1ccc(-c2ccc(C(c3ccccc3)n3ccnc3)cc2)cc1 (stereo unspecified) in this assay.
Result: inactive

Task: Returns: the outcome recorded for "COc1ccc(CCN2CCC(Nc3nc4ccccc4n3Cc3ccc(F)cc3)CC2)cc1" in this assay.
Result: inactive
